test system: Guinea Pig Ileum; assay: Guinea pig ileum assay: inhibition of tonic contraction (K+ challenge) of longitudinal muscle, calcium channel blocking; type: cell-based; settings: Cavia porcellus; concentration inhibiting tonic contraction of muscle by 50%; 80 mM K+ challenge, 37° C., compound 2 minutes prior
Structures can show the parent of a compound that is named as a salt.
Value kind: log10 of IC50 (log10 of the value in µM)
Friendly reminder: values = log10 of IC50, unit µM.

COc1ccc([C@@H]2Sc3cccc4cccc(c34)N(CCN(C)C)C(=O)[C@@H]2O)cc1 (racemic) [OH HCl (±)-cis] ... 0.62
COc1ccc([C@@H]2Sc3cccc4cccc(c34)N(CCN(C)C)C(=O)[C@@H]2OC(C)=O)cc1.O=C(O)/C=C/C(=O)O [OCOCH3 fumarate (+)-cis] ... -0.60
COc1ccc([C@@H]2Sc3cccc4cccc(c34)N(CCN(C)C)C(=O)[C@@H]2OC(C)=O)cc1 (relative stereo) [OCOCH3 HCl (±)-cis] ... 0.59

// batch mode: one log10 of IC50 value per listed entry
1. COc1ccc([C@@H]2Sc3cccc4cccc(c34)N(CCN(C)C)C(=O)[C@H]2OC(C)=O)cc1 (racemic) [OCOCH3 HCl (±)-trans]
2. COc1ccc([C@@H]2Sc3cccc4cccc(c34)N(CCN(C)C)C(=O)[C@@H]2O)cc1 [OH HCl (+)-cis]

Key:
0.48
0.49
